The reported measurements were obtained from ChEMBL document CHEMBL4483862.

System: Plasmodium berghei
TEST DETAILS: Luciferase/luciferin-expressing antifolate-resistant parasites were used to infect a culture of HepG2 cells that were pre-incubated with compounds. Infected hepatocytes emit light due to the luciferase reaction. Assay results are presented as the percent inhibition of light emission compared to control. […]
Type: functional
EXPERIMENTAL CONDITIONS: sporozoite, FFLUC_HILL_SLOPE 9.87, FFLUC_R_SQUARED 0.392, HEPG2TOX_HILL_SLOPE 0.611, HEPG2TOX_R_SQUARED 0.894, PBLUC_HILL_SLOPE 4.02, PBLUC_R_SQUARED 0.616, read-out: LUCIFERASE INFECTION ASSAY - IC50
pIC50: −log10 of the molar value.

TEST SMILES | pIC50
CCCCNC(=O)c1c(NC(=O)c2cc(F)cc(F)c2)nc2ccccn12 | 6.17
